# System: Puccinia recondita f. sp. tritici
# Run Description: Test H: wheat leaf rust, spray on wheat seedlings the day before inoculation
# Assay type: in vivo
# Condition Parameters: 200 ppm test suspension, sprayed before inoculation
Observable: Test H rating (100 = 100% disease control, 0 = no disease control) (%)
Answers are plain numbers, in %.

Please report Test H rating (100 = 100% disease control, 0 = no disease control) for every entry that follows.
1. Cc1noc(=O)c(-c2c(F)cc(F)cc2F)c1-c1ccc(C(F)(F)F)cc1
2. COc1cc(F)c(-c2c(C)oc(=O)c(C)c2-c2c(Cl)c(OC)cc(OC)c2Cl)c(F)c1
3. COc1cc(OC)cc(-c2c(-c3ccc(F)cc3Cl)c(C)oc(=O)c2C)c1
4. COc1cc(OC)cc(-c2c(-c3c(F)cccc3F)c(C)oc(=O)c2C)c1
5. COc1cc(F)c(-c2c(-c3cc(OC)cc(OC)c3Cl)c(C)oc(=O)c2C)c(F)c1

Ans:
1. 0
2. 96
3. 100
4. 100
5. 100

---

# Tested on: Alternaria solani
# Run Description: Test B: tomato early blight, spray on tomato seedlings the day before inoculation
# Assay type: in vivo
# Condition Parameters: 200 ppm test suspension
Field: label. Allowed values: label 1 (Test B rating (100 = 100% disease control, 0 = no disease control) < 50%) or label 0 (Test B rating (100 = 100% disease control, 0 = no disease control) >= 50%).

Consider the following illustrative entries.
Cc1noc(=O)c(-c2ccc(F)cc2Cl)c1-c1ccc(Br)cc1 | label 1
Cc1noc(=O)c(-c2c(F)cc(F)cc2F)c1-c1cccc(F)c1 | label 0
COc1cccc(-c2c(-c3ccc(F)cc3F)c(C)oc(=O)c2-c2ccccc2)c1 | label 0
Cc1noc(=O)c(-c2c(F)cc(F)cc2F)c1-c1ccc(F)cc1 | label 0
Cc1noc(=O)c(-c2c(F)cc(F)cc2F)c1-c1ccc(Br)cc1 | label 0

Q: Test B rating (100 = 100% disease control, 0 = no disease control) strictly < 50% for this compound? `COc1cc(OC)cc(-c2c(-c3ccccc3F)noc(=O)c2-c2c(F)cccc2F)c1`
Ans: label 1

Q: Test B rating (100 = 100% disease control, 0 = no disease control) strictly < 50% for this compound? `Cc1noc(=O)c(-c2c(F)cc(F)cc2F)c1-c1ccc(Cl)c(F)c1`
Ans: label 1

Q: Test B rating (100 = 100% disease control, 0 = no disease control) strictly < 50% for this compound? `Cc1noc(=O)c(-c2ccc(F)cc2F)c1-c1ccc(Cl)cc1`
Ans: label 1

Q: Test B rating (100 = 100% disease control, 0 = no disease control) strictly < 50% for this compound? `Cc1noc(=O)c(-c2c(F)cccc2Cl)c1-c1ccc(Cl)cc1`
Ans: label 0

Q: Test B rating (100 = 100% disease control, 0 = no disease control) strictly < 50% for this compound? `Cc1noc(=O)c(-c2c(F)cc(F)cc2F)c1-c1ccc(Cl)cc1`
Ans: label 0

Q: Test B rating (100 = 100% disease control, 0 = no disease control) strictly < 50% for this compound? `COc1cc(F)c(-c2c(-c3cc(OC)cc(OC)c3Cl)c(C)oc(=O)c2C)c(F)c1`
Ans: label 0

---

Field: Test A rating (100 = 100% disease control, 0 = no disease control). Provide a value for each of the compounds that follow.
# Test system: Botrytis cinerea
# Run Description: Test A: tomato Botrytis, spray on tomato seedlings the day before inoculation
# Format: in vivo
# Condition Parameters: 200 ppm test suspension
Give bare numbers, in %.

Examples with their reported Test A rating (100 = 100% disease control, 0 = no disease control) follow.
COc1cc(OC)cc(-c2c(-c3ccccc3F)c(C)oc(=O)c2-c2ccccc2)c1 [Compound 26] | 99
COc1cc(OC)c(Cl)c(-c2c(-c3c(F)cc(F)cc3F)c(C)oc(=O)c2C)c1Cl [Compound 59] | 100

Please report Test A rating (100 = 100% disease control, 0 = no disease control) for every entry that follows.
1. Cc1noc(=O)c(-c2cccc(F)c2)c1-c1c(F)cccc1F [Compound 4]
2. COc1cc(OC)cc(-c2c(-c3ccc(F)cc3F)c(C)oc(=O)c2-c2ccccc2)c1 [Compound 27]

Ans:
1: 0; 2: 98

---

# Tested on: Botrytis cinerea
# Run Description: Test A: tomato Botrytis, spray on tomato seedlings the day before inoculation
# Format: in vivo
# Condition Parameters: 200 ppm test suspension
# Text: General protocol for preparing test suspensions for Tests A-I: the test compounds were first dissolved in acetone in an amount equal to 3% of the final volume and then suspended at the desired concentration (in ppm) in acetone and purified water (50/50 mix by volume) containing 250 ppm of the surfactant Trem® 014 (polyhydric alcohol esters). […]
Field: Test A rating (100 = 100% disease control, 0 = no disease control). Provide a value for each of the compounds that follow.
Give bare numbers, in %.

Examples with their reported Test A rating (100 = 100% disease control, 0 = no disease control) follow.
COc1cccc(-c2c(-c3ccccc3F)c(C)oc(=O)c2-c2ccccc2)c1 [Compound 28] | 100
Cc1noc(=O)c(-c2c(F)cc(F)cc2F)c1-c1ccc(Br)cc1 [Compound 10] | 98
COc1cc(F)c(-c2c(C)oc(=O)c(C)c2-c2c(Cl)c(OC)cc(OC)c2Cl)c(F)c1 [Compound 44] | 79
COc1cc(F)c(-c2c(-c3cc(OC)cc(OC)c3Cl)c(C)oc(=O)c2C)c(F)c1 [Compound 49] | 100
COc1cc(OC)cc(-c2c(C)oc(=O)c(C)c2-c2c(F)cc(OC)cc2F)c1 [Compound 43] | 100
Cc1noc(=O)c(-c2c(F)cc(F)cc2F)c1-c1ccc(F)cc1 [Compound 11] | 100

Please report Test A rating (100 = 100% disease control, 0 = no disease control) for every entry that follows.
1. COc1cc(OC)cc(-c2c(-c3ccc(F)cc3Cl)c(C)oc(=O)c2C)c1 [Compound 46]
2. COc1cc(OC)cc(-c2c(-c3c(F)cccc3F)c(C)oc(=O)c2C)c1 [Compound 51]

Ans:
1: 100; 2: 100

Please report Test A rating (100 = 100% disease control, 0 = no disease control) for every entry that follows.
1. Cc1noc(=O)c(-c2c(F)cc(F)cc2F)c1-c1ccc(Cl)cc1 [Compound 3]
2. COc1cc(OC)cc(-c2c(C)noc(=O)c2-c2c(F)cc(F)cc2F)c1 [Compound 24]
3. Cc1noc(=O)c(-c2c(F)ccc(F)c2F)c1-c1ccc(Cl)cc1 [Compound 6]
4. COc1cccc(-c2c(-c3ccc(F)cc3F)c(C)oc(=O)c2-c2ccccc2F)c1 [Compound 34]
5. Cc1noc(=O)c(-c2c(F)cc(F)cc2F)c1-c1ccc(Cl)c(F)c1 [Compound 16]
6. Cc1noc(=O)c(-c2c(F)cccc2Cl)c1-c1ccc(Cl)cc1 [Compound 8]
7. Cc1noc(=O)c(-c2c(F)cc(F)cc2F)c1-c1ccc(C(F)(F)F)cc1 [Compound 12]
8. Cc1noc(=O)c(-c2ccc(F)cc2F)c1-c1ccc(Cl)cc1 [Compound 13]

Ans:
[99, 98, 99, 100, 0, 100, 0, 0]

Please report Test A rating (100 = 100% disease control, 0 = no disease control) for every entry that follows.
1. COc1cc(OC)cc(-c2cc(=O)oc(C)c2-c2ccc(F)cc2Cl)c1 [Compound 56]
2. COc1cc(OC)cc(-c2c(-c3ccccc3F)noc(=O)c2-c2c(F)cccc2F)c1 [Compound 22]
3. Cc1noc(=O)c(-c2ccc(Cl)cc2)c1-c1c(F)cccc1F [Compound 2]
4. Cc1noc(=O)c(-c2c(F)cc(F)cc2F)c1-c1cccc(F)c1 [Compound 5]
5. COc1cccc(-c2c(-c3ccc(F)cc3F)c(C)oc(=O)c2-c2ccccc2)c1 [Compound 29]

Ans:
1: 94; 2: 0; 3: 47; 4: 0; 5: 99

Please report Test A rating (100 = 100% disease control, 0 = no disease control) for every entry that follows.
1. Cc1noc(=O)c(-c2ccc(F)cc2Cl)c1-c1ccc(Br)cc1 [Compound 14]
2. COc1cc(OC)c(Cl)c(-c2c(-c3c(F)cccc3F)c(C)oc(=O)c2C)c1Cl [Compound 53]

Ans:
[0, 61]

---

# System: Alternaria solani
# Run Description: Test B: tomato early blight, spray on tomato seedlings the day before inoculation
# Assay type: in vivo
# Condition Parameters: 200 ppm test suspension
Observable: Test B rating (100 = 100% disease control, 0 = no disease control) (%)
One number for each entry, in %.

Examples with their reported Test B rating (100 = 100% disease control, 0 = no disease control) follow.
COc1cc(F)c(-c2c(C)oc(=O)c(C)c2-c2c(Cl)c(OC)cc(OC)c2Cl)c(F)c1 | 0
Cc1noc(=O)c(-c2c(F)cccc2F)c1-c1ccc(Br)cc1 | 96

Q: Look up Alternaria solani data: Test B rating (100 = 100% disease control, 0 = no disease control) of `Cc1ccc(-c2c(C)noc(=O)c2-c2c(F)cc(F)cc2F)cc1` , then report it.
Ans: 46
